Below, each entry is listed with its recorded Luciferase assay (EC50).
Target: human CD28 (human, UniProt P10747 19-220)
Assay: cell-based or functional assay
API: value field is a number in nM; no unit string.

Previously resolved entries follow.
1h-72 (other) VL: DIQMTQSPSSLSASVGDRVTITCRASRSINHWLDWYQQKPGKAPTLLISGVSWLQSGVPSRFSGSGSGTDFTLTISSLQPEDFATYYCCQPGFRPCTFGQGTKVEIKR    3400
1h-90 (other) VL: DIQMTQSPSSLSASVGDRVTITCRASQTIGHGLVWYQQKPGKAPKLLIYWSSHLQSGVPSRFSGSGSGTDFTLTISSLQPEDFATYYCQQTLRTPFTFGQGTKVEIKR    1000
1h-79-28 (other) VL: DIQMTQSPSSLSASVGDRVTITCRASQPIGHSLGWYQQKPGKAPKLLIYWASMLQSGVPSRFSGSGSGTDFTLTISSLQPEDFATYYCQQMLRTPFMFGQGTKVEIKR    40

Form: binder = 1h-71 (other) VL: DIQMTQSPSSLSASVGDRVTITCRASRDIGHMLNWYQQKPGKAPKLLIWFGSVLQSGVPSRFSGSGSGTDFTLTISSLQPEDFATYYCVQGRLRPPTFGQGTKVEIKR ; Luciferase assay (EC50) = 3500

Value of measured Luciferase assay (EC50) for the entry 1h-79-1520 (other) VL: DIQMTQSPSSLSASVGDRVAITCRASQPIGHSLGWYEQKPGKAPKLLIYWSSVLISGVPSRFSGSGSGTDFTLTISSLQPEDFATYYCQQMLRTPFTFGQGTKVEIKR : 113

Consider 1h-79-806 (other) VL: DIQMTQSPSSLSASVGDRVTITCRASQPIGHSLGWYQQKPGKAPKLLIYWASMLQGGVPSRFSGSGSGTDFTLTISSLQPEDFATYYCQQMLRTPFMFGQGTKVEIKR . Its measured Luciferase assay (EC50) is 40

Documented Luciferase assay (EC50) of 1h-99-220 (other) VH: EVQLLESGGGLVQPGGSLRLSCAASGFTFYRSNMSWVRQAPGKGLEWVSWIEDTGTQTFYADSVKGRFTISRDNSKNTLYLQMNSLRAEDTAVYYCAKSPFGPLYGFDYRGQGTLVTVSS : 10

The measured Luciferase assay (EC50) associated with 1h-75 (other) VL: DIQMTQSPSSLSASVGDRVTITCRASQYIGTRLSWYQQKPGKAPKLLIYNASFLQSGVPSRFSGSGSGTDFTLTISSLQPEDFATYYCQQLALSPLTFGQGTKVEIKR reads 5700

The values you see were collected from patent US20130109846A1.
